- ASSAY_TARGET: SLC13A3 (Homo sapiens, UniProt Q8WWT9)
- Sequence (Q8WWT9 whole entry): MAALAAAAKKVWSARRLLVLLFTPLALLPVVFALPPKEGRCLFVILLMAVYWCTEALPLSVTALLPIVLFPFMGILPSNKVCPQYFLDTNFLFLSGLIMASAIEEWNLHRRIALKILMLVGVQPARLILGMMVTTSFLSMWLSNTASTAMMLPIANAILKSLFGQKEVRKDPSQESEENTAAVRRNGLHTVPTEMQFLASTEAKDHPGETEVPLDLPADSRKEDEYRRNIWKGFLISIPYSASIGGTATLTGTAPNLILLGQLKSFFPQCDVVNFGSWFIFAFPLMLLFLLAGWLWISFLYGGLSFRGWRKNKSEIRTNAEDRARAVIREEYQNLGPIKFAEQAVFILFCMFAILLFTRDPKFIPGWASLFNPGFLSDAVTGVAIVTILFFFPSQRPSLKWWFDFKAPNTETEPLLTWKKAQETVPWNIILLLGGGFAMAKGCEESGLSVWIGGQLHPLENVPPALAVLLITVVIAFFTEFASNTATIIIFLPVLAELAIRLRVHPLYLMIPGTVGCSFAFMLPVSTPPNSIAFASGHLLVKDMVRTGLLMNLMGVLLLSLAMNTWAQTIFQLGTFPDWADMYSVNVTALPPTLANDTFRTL
- EXPERIMENTAL_PROTOCOL: inhibition of […]-succinate uptake in SLC13A3-transfected HEK293 cells

| COMPOUND | READING_UNIT | IC50 |
| --- | --- | --- |
| N[C@@H](CCC(=O)N[C@@H](CS)C(=O)NCC(=O)O)C(=O)O [GSH, glutathione] | µM | 1890 |

// data source = paper PMC11364541
